- measurementNotes: Metabolic stability in human liver microsomes
- assayConditions: human, liver microsomes
observable: half-life at 1 μM (min)

compound="COc1ccc(S(=O)(=O)N2CCN(C(=O)OCc3ccccc3)CC2C(=O)NO)cc1 (centres unmarked) [DB04232]" units=min recordedvalue=36
compound="O=C(O)Cc1ccccc1Nc1c(Cl)cccc1Cl [Diclofenac]" units=min recordedvalue=6

---

- measurementNotes: in vitro
- assayConditions: human, microsomes
observable: remaining at 0.75 h, 1 μM (%)

compound="COc1ccc(S(=O)(=O)N2C3CN(C(=O)OCc4ccccc4)CC2(C(=O)NO)C3)cc1 (stereo not shown)" recordedvalue=36.6

---

- measurementNotes: in vitro
- assayConditions: human, microsomes
observable: half-life at 1 μM

compound="COc1ccc(S(=O)(=O)N2C3CN(C(=O)OCc4ccccc4)CC2(C(=O)NO)C3)cc1 (stereo not shown)" recordedvalue="36.3 min"

---

- measurementNotes: physchem
- assayConditions: pH 7.4
observable: chromatographic logP

compound="COc1ccc(S(=O)(=O)N2C3CN(C(=O)OCc4ccccc4)CC2(C(=O)NO)C3)cc1 (stereo not shown)" observable="chromatographic logP" recordedvalue=0.946

---

- measurementNotes: in vitro
- assayConditions: human, microsomes
observable: CLint scaled at 1 μM (mL/min/kg)

molecule="COc1ccc(S(=O)(=O)N2C3CN(C(=O)OCc4ccccc4)CC2(C(=O)NO)C3)cc1 (stereo not shown)" observable="CLint scaled at 1 μM" units=mL/min/kg recordedvalue=34.3

---

- measurementNotes: in vitro
- assayConditions: human, microsomes
observable: remaining at 0.5 h, 1 μM (%)

compound="COc1ccc(S(=O)(=O)N2C3CN(C(=O)OCc4ccccc4)CC2(C(=O)NO)C3)cc1 (stereo not shown)" units=% recordedvalue=45.9

---

- measurementNotes: LogP Assay (HPLC retention, pH 7.4)
- assayConditions: X-Bridge C18 column (retention-time method)
observable: chromatographic logP

compound="COc1ccc(S(=O)(=O)N2CCN(C(=O)OCc3ccccc3)CC2C(=O)NO)cc1 (stereo not shown)" observable="chromatographic logP" recordedvalue=1.43

These measurements were taken from paper PMC13171625.
